- System: SK-OV-3 ovarian
- TEST: NCI-60 one-dose screen, 48 h (100 = growth as untreated, 0 = no growth, -100 = all killed)
- APPLIED CONDITIONS: 10 µM unless noted
The panel holds about 83,000 compounds, 20% with a hit somewhere; the sample as a whole holds those more often.
QUANTITY KIND: growth (%)
Give bare numbers, in %.

COC(=O)[C@H]1[C@H](OC)[C@@H](OC(=O)/C=C/c2ccncc2)CC2CN3CCc4c([nH]c5cc(OC)ccc45)[C@@H]3C[C@@H]21 (some centres not stated)	89.1
O=C(O)c1ccc(-n2cc(CNc3ccc(C(F)(F)F)cc3)c(-c3ccccc3)n2)cc1	103
Nc1nc(-c2ccccc2)cs1	99.4
CCN(CC)c1cc(/C=C/c2ccc(OC)c(OC)c2)nc2cc(F)c(F)cc12	-39.5
c1ccc(CCn2nnc3c(Nc4ccc(N5CCOCC5)cc4)ncnc32)cc1	93.1
O=C(N/N=C/c1c(Cl)cccc1Cl)c1ccccc1Nc1ccnc(C(F)(F)F)c1	76.9

Dear reader, for each entry below, please note its growth.
1. COc1ccc(/C=C2\C(=O)N(C(=O)c3csc(NC(C)=O)n3)N=C2C)cc1
2. NC(=O)c1c(NC(=O)c2ccc3c(c2)OCO3)sc2c1CCC(=O)C2
3. Cc1nc(Nc2cccnc2)sc1C(=O)/C=C/c1ccc(F)cc1
4. CC(Br)C(Br)c1cc2c(cc1Br)OCO2 (configuration not stated)
5. C=C1C(=O)O[C@H]2[C@H]1CC/C(COC(=O)NCc1ccc(OC)cc1)=C\CC[C@@]1(C)O[C@@H]21
6. O=C1CCCCN1CCCCC#Cc1ccccc1C#Cc1ccc([N+](=O)[O-])cc1
7. COc1cc(NC(=O)CSc2nc3ccc(C)cc3c(=O)n2-c2ccccc2)cc(OC)c1OC

[100, -11.7, 71.6, 84, 84.8, 71.1, 107]

List growth for every entry below, keeping the order given.
1. CCSc1nnc(Nc2ccc(C(C)C)cc2)s1
2. O=C(NNC(=S)Nc1ccccc1)c1ccccn1
3. CN(C)c1ccc(/C=C\N=Nc2ccc(Br)cc2)cc1

1. 104
2. 33.5
3. 92.8

Please state growth for every compound in the list that follows.
1. COC1=CC(c2ccc[nH]2)=N/C1=C\c1[nH]c(C)c(CCCn2cc(CCCCCCCCC[C@@H]3Cc4cc(O)ccc4C4CC[C@]5(C)[C@@H](O)CC[C@H]5C43)nn2)c1C (some centres not stated)
2. COc1ccc(C2=NN(c3ccc(S(N)(=O)=O)cc3)C(c3cn(-c4ccccc4)nc3-c3ccc(Cl)cc3)C2)cc1 (configuration not stated)
3. O=C1CCC(=O)N1Cc1ccccc1
4. Clc1ccc(-c2nc(-c3ccco3)cn3ccnc23)cc1
5. C#CCC1(c2ccc(F)c(F)c2)NS(=O)(=O)c2ccccc21 (configuration not stated)
6. O=S=Nc1ccc([N+](=O)[O-])cc1
7. O=C(/C=C/CN1CCOCC1)Nc1cc2c(Nc3ccc(F)c(Cl)c3F)ncnc2cc1OCCOC(F)F
8. CC(=O)Nc1ccc(S(=O)(=O)NC(CCC(=O)Nc2ccc(Cl)cc2)C(=O)O)cc1 (configuration not stated)

1: 84; 2: 97.7; 3: 113; 4: -14.7; 5: 96.9; 6: 103; 7: 11.8; 8: 93.7

Batch request: growth for each of the following compounds.
1. Cc1ccc(OCCn2c(C)nn(-c3ccc(Cl)cc3)c2=O)cc1
2. Cc1cc(C)c(NC(=O)c2sc3nc4c(cc3c2N)CN(Cc2ccccc2)CC4)c(C)c1
3. NC(CC(N)C(=O)O)C(=O)O (configuration not stated)

[113, 23.9, 111]

Source: PubChem BioAssay (NCI)
